# assay_system: T1, hPRLR.mmh (soluble monomeric human PRLR) (Homo sapiens, UniProt P16471)
# T1 construct: soluble monomeric (hPRLR.mmh); mmh (myc-myc-hexahistidine)
# T1 sequence (P16471 with tags, fused parts or gaps): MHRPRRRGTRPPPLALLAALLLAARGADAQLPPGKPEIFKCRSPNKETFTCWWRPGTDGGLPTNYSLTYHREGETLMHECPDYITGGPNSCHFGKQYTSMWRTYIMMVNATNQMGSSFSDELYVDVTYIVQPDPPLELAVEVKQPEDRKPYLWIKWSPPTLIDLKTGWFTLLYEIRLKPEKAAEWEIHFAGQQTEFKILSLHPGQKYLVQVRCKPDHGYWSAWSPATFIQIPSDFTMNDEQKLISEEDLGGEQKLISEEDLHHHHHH
# run_description: Surface plasmon resonance (Biacore T200), mAb-capture format
# Format: binding
# condition_description: 37° C., antibody-capture format, analyte hPRLR.mmh
pKd: −log10 of the molar value.

# molecule, pKd
measured = [
    ("H1H6976N: human IgG1 Fc form of H2M6976N; anti-PRLR; HCVR/LCVR SEQ ID NOs 386/394 (antibody, V domains shown, human IgG1 Fc) VH: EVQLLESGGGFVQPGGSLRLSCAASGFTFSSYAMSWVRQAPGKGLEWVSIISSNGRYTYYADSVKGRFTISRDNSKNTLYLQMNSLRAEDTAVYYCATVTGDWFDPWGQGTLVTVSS VL: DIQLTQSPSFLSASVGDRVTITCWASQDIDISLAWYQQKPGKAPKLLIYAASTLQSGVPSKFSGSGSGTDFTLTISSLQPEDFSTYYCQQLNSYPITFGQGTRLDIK", 8.39),
    ("H1H6953N: human IgG1 Fc form of H1M6953N; anti-PRLR; HCVR/LCVR SEQ ID NOs 274/282 (antibody, V domains shown, human IgG1 Fc) VH: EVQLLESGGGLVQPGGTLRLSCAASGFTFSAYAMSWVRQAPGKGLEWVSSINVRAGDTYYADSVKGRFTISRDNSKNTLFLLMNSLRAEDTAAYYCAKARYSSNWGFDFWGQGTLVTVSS VL: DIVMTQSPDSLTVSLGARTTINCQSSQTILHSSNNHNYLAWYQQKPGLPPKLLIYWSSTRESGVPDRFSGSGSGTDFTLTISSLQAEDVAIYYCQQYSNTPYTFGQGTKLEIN", 8.95),
    ("H1H6793P: anti-PRLR antibody, human IgG1 Fc; HCVR/LCVR SEQ ID NOs 146/154 (antibody, V domains shown, human IgG1 Fc) VH: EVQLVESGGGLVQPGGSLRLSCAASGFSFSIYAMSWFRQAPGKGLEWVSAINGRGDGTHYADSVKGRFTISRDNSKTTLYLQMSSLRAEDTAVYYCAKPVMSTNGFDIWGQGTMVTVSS VL: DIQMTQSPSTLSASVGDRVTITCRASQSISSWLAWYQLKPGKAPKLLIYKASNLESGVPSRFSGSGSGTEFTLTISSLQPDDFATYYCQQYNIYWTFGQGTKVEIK", 8.52),
    ("H1H6803P: anti-PRLR antibody, human IgG1 Fc; HCVR/LCVR SEQ ID NOs 226/234 (antibody, V domains shown, human IgG1 Fc) VH: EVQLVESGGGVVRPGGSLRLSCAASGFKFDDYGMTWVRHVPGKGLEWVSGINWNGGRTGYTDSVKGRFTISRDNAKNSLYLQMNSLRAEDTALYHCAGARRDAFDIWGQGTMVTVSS VL: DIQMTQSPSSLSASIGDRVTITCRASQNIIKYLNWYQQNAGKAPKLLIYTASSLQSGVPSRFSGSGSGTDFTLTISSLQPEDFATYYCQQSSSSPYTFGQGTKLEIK", 8.55),
    ("H1H6785P: anti-PRLR antibody, human IgG1 Fc; HCVR/LCVR SEQ ID NOs 98/106 (antibody, V domains shown, human IgG1 Fc) VH: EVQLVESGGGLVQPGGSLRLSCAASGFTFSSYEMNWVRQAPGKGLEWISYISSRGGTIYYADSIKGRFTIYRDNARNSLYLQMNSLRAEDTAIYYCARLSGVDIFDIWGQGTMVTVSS VL: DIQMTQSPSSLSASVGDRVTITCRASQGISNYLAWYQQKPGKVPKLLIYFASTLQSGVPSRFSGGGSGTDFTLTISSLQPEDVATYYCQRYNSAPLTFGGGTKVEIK", 8.94),
    ("H1H6782P: anti-PRLR antibody, human IgG1 Fc; HCVR/LCVR SEQ ID NOs 66/74; non-blocking (antibody, V domains shown, human IgG1 Fc) VH: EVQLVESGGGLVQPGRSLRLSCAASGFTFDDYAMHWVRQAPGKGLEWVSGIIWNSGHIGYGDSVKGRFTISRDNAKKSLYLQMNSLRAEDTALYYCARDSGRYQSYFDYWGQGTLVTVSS VL: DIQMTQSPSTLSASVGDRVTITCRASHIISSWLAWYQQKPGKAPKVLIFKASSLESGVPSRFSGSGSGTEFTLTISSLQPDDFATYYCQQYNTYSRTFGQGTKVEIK", 8.89),
    ("H1H6975N: human IgG1 Fc form of H2M6975N; anti-PRLR; HCVR/LCVR SEQ ID NOs 370/378 (antibody, V domains shown, human IgG1 Fc) VH: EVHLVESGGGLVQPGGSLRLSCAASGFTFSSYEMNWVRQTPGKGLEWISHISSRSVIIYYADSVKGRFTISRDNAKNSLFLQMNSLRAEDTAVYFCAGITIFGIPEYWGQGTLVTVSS VL: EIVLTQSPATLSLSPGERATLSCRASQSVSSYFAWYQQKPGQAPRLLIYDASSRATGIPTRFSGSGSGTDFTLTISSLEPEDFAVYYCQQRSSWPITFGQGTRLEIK", 8.89),
    ("H1H6959N2: human IgG1 Fc form of H2M6959N2; anti-PRLR; HCVR/LCVR SEQ ID NOs 306/314 (antibody, V domains shown, human IgG1 Fc) VH: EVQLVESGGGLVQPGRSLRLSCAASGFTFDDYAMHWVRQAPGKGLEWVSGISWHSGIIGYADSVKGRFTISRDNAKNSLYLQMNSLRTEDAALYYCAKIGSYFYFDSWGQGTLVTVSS VL: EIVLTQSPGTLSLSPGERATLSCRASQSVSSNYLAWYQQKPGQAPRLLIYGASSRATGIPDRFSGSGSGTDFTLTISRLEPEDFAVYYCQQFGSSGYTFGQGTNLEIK", 6.17),
]
